procedure-summary: qHTS RealTime-Glo MT Cell Viability Assay in HEK293 cells - 24 hour (AID 1224886); further: top concentration of the series differs between compounds; on the % scale 0 is the no-effect control and ±100 the full control effect; nearly all actives have a fitted effect of over 50% in size
condition-description: RealTime-Glo luminescence; series mostly up to 76.8 µM
Results filed as inconclusive are left out. Activity calls are given as the source filed them. The call rests on the fitted dose curve; in most records, active means well fitted cell-killing curve with a large enough effect in the repeat runs; inconclusive means weak or mixed curves, or effect the other way; inactive means flat fitted curve, though single readings scatter.
measurement-type: activity change, negative = cytotoxicity

Completed entries (count: 10):
O=C1c2ccccc2C(=O)c2cc(Cl)ccc21    2.92% [at 6.97 µM] (inactive)
CC(=O)Nc1ccc(OC(=O)c2ccccc2OC(C)=O)cc1    inactive
ONc1ccccc1    inactive
CC(=O)O[C@H]1C[C@@H]2CC[C@@]1(C)C2(C)C    inactive
O=C1CCCCO1    inactive
CC(C)c1ccc(C=O)cc1    inactive
Cc1ncc([N+](=O)[O-])n1CC(C)O (stereo not given)    inactive
CC(=O)OCC(=O)Nc1cc(C#N)cc(NC(=O)COC(C)=O)c1Cl    inactive
CC1CCc2c(N3CCC(O)CC3)c(F)cc3c(=O)c(C(=O)O)cn1c23 (stereo not given)    inactive
CCN1CCCC1CN (stereo not given)    inactive

Prompt: May I ask what activity change, negative = cytotoxicity has been recorded for COP(=O)(O)OP(=O)(O)OC ?
Completion: inactive

Prompt: Which value of activity change, negative = cytotoxicity has been reported for CC(C)OC(=O)OCOP(=O)(CO[C@H](C)Cn1cnc2c(N)ncnc21)OCOC(=O)OC(C)C in the records?
Completion: inactive

Prompt: Item under review: O/N=C/C=N/O . Reported activity change, negative = cytotoxicity?
Completion: inactive

Prompt: What value of activity change, negative = cytotoxicity has been recorded for this entry: CCC(C)C(=O)OCCc1ccccc1 (stereo not given)
Completion: inactive

Prompt: Please report the recorded activity change, negative = cytotoxicity for OCCN1CCOCC1 .
Completion: inactive

Prompt: I would be grateful if you could share the reported activity change, negative = cytotoxicity for CCCCCCCCCOC(=O)c1ccccc1C(=O)OCCCCCCCCC .
Completion: inactive

Prompt: What value of activity change, negative = cytotoxicity has been reported for the following compound? Cn1nnc2c(C(N)=O)ncn2c1=O
Completion: inactive

Prompt: Which activity change, negative = cytotoxicity reading was recorded for the compound C=CC(=O)CCCCC ?
Completion: inactive

Prompt: Can you look up the measured activity change, negative = cytotoxicity of Cc1ccc(C)c([N+](=O)[O-])c1 for me?
Completion: inactive

Prompt: So what does the record say about activity change, negative = cytotoxicity for CC(=O)CC(=O)OC(C)(C)C ?
Completion: inactive

Prompt: // query activity change, negative = cytotoxicity value for entry O=C=NCC1CCCC(CN=C=O)C1 (stereo not given)
Completion: inactive

Prompt: Which activity change, negative = cytotoxicity is listed for CC1=C(C(=O)O)N2C(=O)[C@@H](NC(=O)[C@H](N)c3ccccc3)[C@H]2SC1 ?
Completion: inactive

Prompt: What value of activity change, negative = cytotoxicity has been recorded for this entry: Cc1cc(-c2ccccc2)nnc1NCCN1CCOCC1
Completion: inactive

Prompt: // lookup activity change, negative = cytotoxicity for C/C(CC(C)C)=N\O
Completion: inactive

Prompt: Looking for the measured activity change, negative = cytotoxicity of O=C1OCCO1 , can you help?
Completion: inactive

Prompt: Given the entry CC(=O)CCC1=C(C)CCCC1(C)C , report its measured activity change, negative = cytotoxicity.
Completion: inactive

###

procedure-summary: qHTS assay to identify small molecule antagonists of the TGF-beta/Smad signaling pathway - cell viability counter screen (AID 1346824); further: on the % scale 0 is the no-effect control and ±100 the full control effect; nearly all actives have a fitted effect of over 50% in size
condition-description: SBE-bla HEK293T viability, CellTiter-Glo luminescence; series mostly up to 76.8 µM
Results filed as inconclusive are left out. Active and inactive are the calls of the source. Calls come from the whole dose curve; as a rule, active = well fitted cell-killing curve with a large enough effect in the repeat runs; inconclusive = weak or mixed curves; inactive = flat fitted curve, though single readings scatter.
measurement-type: viability change, negative = cytotoxic

Recorded viability change, negative = cytotoxic, per entry:
C=C(C)C1CC=C(C)C(=O)C1 (stereo not given)    inactive
CC(C)(CO)C(O)C(=O)NCCCO (stereo not given)    inactive
CC(=O)OC(C)=O    inactive
Cn1c(=O)c2c(ncn2CCO)n(C)c1=O    inactive
CCCCOC(=O)[C@H](C)O    inactive

Prompt: Which viability change, negative = cytotoxic reading was recorded for the compound c1ccc2cnccc2c1 ?
Completion: inactive

###

target-or-test-system: Cytochrome P450 3A4 (Homo sapiens)
procedure-summary: Cytochrome P450 Family 3 Subfamily A Member 4 (CYP3A4) small molecule antagonists: luciferase reporter qHTS assay (AID 1671201); further: nearly all actives have a fitted effect of over 50% in size
condition-description: P450-Glo CYP3A4 enzyme, luciferin luminescence, 1 h; series mostly up to 115 µM
Results filed as inconclusive are left out. Calls of active or inactive are those of the source. Calls come from the whole dose curve; as a rule, active = well fitted inhibition curve with a large enough effect in the repeat runs; inconclusive = weak or mixed curves; inactive = no such curve, though single readings can be large or run the other way.
Give one outcome, nothing more. List: active, inactive

Prompt: Record lookup: outcome of this test for N#CCC(=O)NN ?
Completion: inactive

Prompt: In this assay, the call recorded for CC(C)COC(=O)c1ccccc1 was what?
Completion: inactive

Prompt: Status in this test for CCO[Si](CC)(OCC)OCC ?
Completion: active

Prompt: Which result was noted for this compound in the test: CO/N=C(/C(=O)N[C@@H]1C(=O)N2C(C(=O)[O-])=C(C[n+]3ccn4ncccc43)CS[C@H]12)c1nsc(N)n1
Completion: inactive

Prompt: How was C#CCN[C@@H]1CCc2ccccc21 classified in this test?
Completion: inactive

Prompt: Record request — test call for CCCCCCCCCCCCCBr
Completion: inactive

Prompt: Dear all, I need the recorded test outcome for CC1=C(C(=O)O)N2C(=O)[C@@H](NC(=O)[C@H](N)C3=CCC=CC3)[C@H]2SC1 , thank you.
Completion: inactive

Prompt: Short answer needed: outcome of this test for COCCc1ccccn1 ?
Completion: inactive

Prompt: What is the recorded call for this compound in the test? COS(=O)(=O)O
Completion: inactive

Prompt: Called result for CC(C)OC(=O)CCC(=O)OC(C)C
Completion: inactive

Prompt: Hello, I am checking results. What call was entered for OCC1CCC(CO)CC1 (stereo not given) ?
Completion: inactive

Prompt: Given C=Cc1ccc(C(C)(C)C)cc1 , state the outcome it received in this test.
Completion: inactive

Prompt: Please share the test call associated with CC/C=C\CCOC(=O)c1ccccc1O .
Completion: inactive

Prompt: Record lookup: outcome of this test for CCCSSCCC ?
Completion: inactive

Prompt: Which outcome did this test record for the compound C=CCCCC ?
Completion: inactive

###

procedure-summary: qHTS RealTime-Glo MT Cell Viability Assay in HepG2 cells - 24 hour (AID 1224867); further: on the % scale 0 is the no-effect control and ±100 the full control effect; nearly all actives have a fitted effect of over 50% in size
condition-description: RealTime-Glo luminescence; series mostly up to 76.8 µM
Excerpt: U.S. Tox21 Program National Center for Advancing Translational Sciences [NCATS] NIH Chemical Genomics Center [NCGC] U.S. Environmental Protection Agency [EPA] National Institutes of Environmental Health Sciences [NIEHS] National Toxicology Program [NTP] U.S. Food and Drug Administration [FDA] Tox21 Assay Overview: Measure of cell viability is critical in the cell-base assay. Analysis of cell viability is necessary for the characterization of cell responses to cytotoxic drugs and environmental stress. […]
Inconclusive results are not listed. Active and inactive are the calls of the source. Calls come from the whole dose curve; as a rule, active = well fitted cell-killing curve with a large enough effect in the repeat runs; inconclusive = weak or mixed curves; inactive = flat fitted curve, though single readings scatter.
measurement-type: activity change, negative = cytotoxicity

Before answering, review these 10 worked examples.
Cc1ccc(C)c([N+](=O)[O-])c1    inactive
C=C(C)C1CC=C(C)C(=O)C1 (configuration not stated)    inactive
Cc1ccc2c(c1)C(=O)c1ccccc1C2=O    inactive
O/N=C/C=N/O    inactive
Cc1cc(-c2ccccc2)nnc1NCCN1CCOCC1    inactive
O=C(NCN1CCOCC1)c1cnccn1    inactive
Cc1ccc(C(C)NC(=O)[C@@H](NC(=O)OC(C)C)C(C)C)cc1 (some centres not stated)    inactive
O=C(CCCl)NCCc1ccccc1    inactive
CCCC(=O)OC/C=C(\C)CCC=C(C)C    inactive
OC[C@@H](O)C(O)[C@@H](O)CO (some centres not stated)    inactive

Please examine the following record next.
Prompt: I'd like to know its activity change, negative = cytotoxicity. The compound in question is Fc1ccccc1
Completion: inactive

###

procedure-summary: A CellTox Green Cytotoxicity Assay to monitor cytotoxicity in HepG2 cells - 24 hour (AID 1224878); further: on the % scale 0 is the no-effect control and ±100 the full control effect; nearly all actives have a fitted effect of over 45% in size
condition-description: CellTox Green fluorescence; series mostly up to 76.8 µM
Records with an inconclusive call do not appear. Active and inactive are the calls of the source. Calls follow the shape of the dose curve; as a rule, active = well fitted activation curve with a large enough effect in the repeat runs; inconclusive = weak or mixed curves; inactive = flat fitted curve, though single readings scatter.
measurement-type: cytotoxicity

N[C@@H](CSCCCO)C(=O)O    -17.7% [at 15.8 µM] (inactive)
C=CCSSCCC    inactive
COC(=O)c1ccccc1C(=O)O    inactive
CC(S)C(C)S (stereo not given)    inactive

Next:
Prompt: Could you share which cytotoxicity value was measured for c1ccc2c(CC3=NCCN3)cccc2c1 ?
Completion: inactive

###

procedure-summary: qHTS assay to identify small molecule HDAC inhibitors - cell viability counter screen (AID 1259365)
condition-description: HCT-116 viability, CellTiter-Glo ATP luminescence, 2 h; series mostly up to 92.4 µM
Activity calls are given as the source filed them. The call rests on the fitted dose curve; in most records, active means well fitted cell-killing curve with a large enough effect in the repeat runs; inconclusive means weak or mixed curves, or effect the other way; inactive means flat fitted curve, though single readings scatter.
measurement-type: activity change, negative = cytotoxicity

Worked cases, activity change, negative = cytotoxicity given:
CC12CCC(C1)C(C)(C)C2O (stereo not drawn)    inactive
Cc1c(C(=O)c2c[nH]n(C)c2=O)ccc(S(C)(=O)=O)c1C1=NOCC1    inactive
CC(C)C[C@@H]1[C@H](c2ccccc2)OC(=O)N1CCCN1CCCCCC1    inactive
COC(=O)c1cccc(Cl)c1    inactive

Prompt: Any idea what its activity change, negative = cytotoxicity is? The compound is ONc1ccccc1
Completion: inactive

Prompt: Bench note: what activity change, negative = cytotoxicity did CC(=O)O[Si](C)(OC(C)=O)OC(C)=O show?
Completion: inactive

Prompt: Reported activity change, negative = cytotoxicity for COC(=O)/C=C\C(=O)O : what is it?
Completion: inactive

Prompt: Report activity change, negative = cytotoxicity for CCO please.
Completion: inactive

Prompt: Record request: activity change, negative = cytotoxicity value, item CCCSSCCC
Completion: inactive

Prompt: State the recorded activity change, negative = cytotoxicity for this entry: CCCCCC(C)O (stereo not drawn)
Completion: inactive

Prompt: Suppose we examine the compound C/C(=C1\CCOC(=O)S1)N(C=O)Cc1cnc(C)nc1N ; what activity change, negative = cytotoxicity value has been reported?
Completion: inactive

Prompt: Looking for the measured activity change, negative = cytotoxicity of CO/N=C(/C(=O)N[C@@H]1C(=O)N2C(C(=O)[O-])=C(C[n+]3ccn4ncccc43)CS[C@H]12)c1nsc(N)n1 , can you help?
Completion: inactive

Prompt: Fill blank: measured activity change, negative = cytotoxicity of the compound CC(=O)OCC(=O)Nc1cc(C#N)cc(NC(=O)COC(C)=O)c1Cl is ____.
Completion: inactive

The measured values listed here are drawn from PubChem BioAssay (Tox21).
